- System: Pseudomonas aeruginosa
- Format: cell-based
Bridge positions count the residues as written; N and C are the ends. Square brackets hold non-standard residues; d marks the D form. Peptide text beside a SMILES is read from it. * marks the point of attachment. ξ: configuration not given here. dBip = N[C@H](Cc1ccc(-c2ccccc2)cc1)C(=O)O; Octanoyl(6-Me) = CCC(C)CCCCC(=O)*; Thr(3ξ) = CC(O)[C@H](N)C(=O)O; Dab = NCC[C@H](N)C(=O)O
Exercise: state measured MIC P. aeruginosa 068 for each of the molecules provided.
Numbers only, in µg/mL.

Record excerpt, results attached:
molecule	MIC P. aeruginosa 068 / µg/mL
CCC(C)CCCCC(=O)N[C@@H](CCN)C(=O)N[C@H](C(=O)N[C@@H](CCN)C(=O)N[C@H]1CCNC(=O)[C@H]([C@@H](C)O)NC(=O)[C@H](CCN)NC(=O)[C@H](CCN)NC(=O)[C@H](CC(C)C)NC(=O)[C@@H](Cc2ccc(-c3ccccc3)cc2)NC(=O)[C@H](CCN)NC1=O)C(C)O (stereo partly drawn) [Example C3, reference compound] ({Octanoyl(6-Me)}-[Dab][Thr(3ξ)][Dab][Dab][Dab][dBip]L[Dab][Dab]T; lactam 4-C)	2
CC(C)C[C@@H]1NC(=O)[C@@H](CC2CCCCC2)NC(=O)[C@H](CCN)NC(=O)[C@@H](NC(=O)[C@H](CN)NC(=O)[C@@H](NC(=O)C(CN)Cc2ccccc2)C(C)O)CCNC(=O)[C@H]([C@@H](C)O)NC(=O)[C@H](CCN)NC(=O)[C@H](CCN)NC1=O (single isomer, unassigned; isomer 2) [Example 34]	4

Recall and state the measured MIC P. aeruginosa 068 for CCCCCCCCC1CNCC1C(=O)N[C@H](C(=O)N[C@@H](CCN)C(=O)N[C@H]1CCNC(=O)[C@H]([C@@H](C)O)NC(=O)[C@H](CCN)NC(=O)[C@H](CCN)NC(=O)[C@H](CC(C)C)NC(=O)[C@@H](Cc2ccccc2-c2ccccc2)NC(=O)[C@H](CCN)NC1=O)C(C)O (single isomer, unassigned; isomer 2) [Example 10] . 2

###

- Tested on: Pseudomonas aeruginosa
- Assay type: cell-based
- Protocol: To evaluate the potency and spectrum of the compounds, susceptibility testing was performed against up to nine strains of each of the Gram negative pathogens, Escherichia coli, Pseudomonas aeruginosa, Klebsiella pneumoniae and Acinetobacter baumannii. The values in Table 2 are MIC (μg/mL) against strains of E. coli, K. pneumoniae, P. aeruginosa and A. baumanii, including strains which show elevated MICs to Polymyxin. The values in Table 2A are MIC (μg/mL). […]
Bridge positions count the residues as written; N and C are the ends. Square brackets hold non-standard residues; d marks the D form. Peptide text beside a SMILES is read from it. * marks the point of attachment. ξ: configuration not given here. Thr(3ξ) = CC(O)[C@H](N)C(=O)O; X1 = CC(C)CN1CCNC[C@H]1C(=O)*; Dab = NCC[C@H](N)C(=O)O; Dap = NC[C@H](N)C(=O)O
Exercise: state measured MIC P. aeruginosa 068 for each of the compounds provided.
Numbers only, in µg/mL.

compound	MIC P. aeruginosa 068 [µg/mL]
CCCCCC/C=C/c1ccc(C[C@H]2NC(=O)[C@H](CCN)NC(=O)[C@@H](NC(=O)[C@H](CN)NC(=O)[C@@H](NC(=O)C3CNCC(CC(C)C)C3)C(C)O)CCNC(=O)[C@H]([C@@H](C)O)NC(=O)[C@H](CCN)NC(=O)[C@H](CCN)NC(=O)[C@H](CC(C)C)NC2=O)cc1 (single isomer, unassigned; isomer 2) [Example 18]	4

Field: next compound
Recall and state the measured MIC P. aeruginosa 068 for CC(C)C[C@@H]1NC(=O)[C@@H](Cc2ccccc2)NC(=O)[C@H](CCN)NC(=O)[C@@H](NC(=O)[C@H](CN)NC(=O)[C@@H](NC(=O)[C@@H]2CNCCN2CC(C)C)C(C)O)CCNC(=O)[C@H]([C@@H](C)O)NC(=O)[C@H](CCN)NC(=O)[C@H](CCN)NC1=O (some centres unmarked) [Example C2, reference compound] (X1-[Thr(3ξ)][Dap][Dab][Dab][dF]L[Dab][Dab]T; lactam 3-C) . 32

###

- Test system: Acinetobacter baumannii
- Type: cell-based
- condition-info: strain 056
measured-attribute: MIC A. baumanii 056 (µg/mL)
Answers are plain numbers, in µg/mL.

Record excerpt, results attached:
compound	unit-symbol	MIC A. baumanii 056
CC(C)C[C@@H]1NC(=O)[C@@H](CC2CCCCC2)NC(=O)[C@H](CCN)NC(=O)[C@@H](NC(=O)[C@H](CCN)NC(=O)[C@@H](NC(=O)CC(CN)C2CCCCC2)[C@@H](C)O)CCNC(=O)[C@H]([C@@H](C)O)NC(=O)[C@H](CCN)NC(=O)[C@H](CCN)NC1=O (single isomer, unassigned; isomer 2) [Example 87]	µg/mL	64
CC(C)C[C@@H]1NC(=O)[C@@H](CC2CCCCC2)NC(=O)[C@H](CCN)NC(=O)[C@@H](NC(=O)[C@H](CCN)NC(=O)[C@@H](NC(=O)CC(CN)CC2CCCCC2)[C@@H](C)O)CCNC(=O)[C@H]([C@@H](C)O)NC(=O)[C@H](CCN)NC(=O)[C@H](CCN)NC1=O (single isomer, unassigned)	µg/mL	16

Recall and state the measured MIC A. baumanii 056 for CC(C)C[C@@H]1NC(=O)[C@@H](CC2CCCCC2)NC(=O)[C@H](CCN)NC(=O)[C@@H](NC(=O)[C@H](CCN)NC(=O)[C@@H](NC(=O)CC(CN)Cc2ccccc2)[C@@H](C)O)CCNC(=O)[C@H]([C@@H](C)O)NC(=O)[C@H](CCN)NC(=O)[C@H](CCN)NC1=O (single isomer, unassigned; isomer 1) [Example 66] . 64

###

- System: Klebsiella pneumoniae
- Format: cell-based
Bridge positions count the residues as written; N and C are the ends. Square brackets hold non-standard residues; d marks the D form. Peptide text beside a SMILES is read from it. * marks the point of attachment. ξ: configuration not given here. Octanoyl(6-Me) = CCC(C)CCCCC(=O)*; dCha = N[C@H](CC1CCCCC1)C(=O)O; Thr(3ξ) = CC(O)[C@H](N)C(=O)O; Dab = NCC[C@H](N)C(=O)O
Exercise: state measured MIC K. pneumoniae 066 for each of the molecules provided.
Numbers only, in µg/mL.

Record excerpt, results attached:
molecule	unit-symbol	MIC K. pneumoniae 066
CCCCCC/C=C/c1ccc(C[C@H]2NC(=O)[C@H](CCN)NC(=O)[C@@H](NC(=O)[C@H](CN)NC(=O)[C@@H](NC(=O)C3CNCC(CC(C)C)C3)C(C)O)CCNC(=O)[C@H]([C@@H](C)O)NC(=O)[C@H](CCN)NC(=O)[C@H](CCN)NC(=O)[C@H](CC(C)C)NC2=O)cc1 (single isomer, unassigned; isomer 2)	µg/mL	2
CCCCCCCCC1CNCC1C(=O)N[C@H](C(=O)N[C@@H](CCN)C(=O)N[C@H]1CCNC(=O)[C@H]([C@@H](C)O)NC(=O)[C@H](CCN)NC(=O)[C@H](CCN)NC(=O)[C@H](CC(C)C)NC(=O)[C@@H](Cc2ccc(-c3ccccc3)cc2)NC(=O)[C@H](CCN)NC1=O)C(C)O (single isomer, unassigned; isomer 1) [Example 7]	µg/mL	4
CCC(C)CCCCC(=O)N[C@@H](CCN)C(=O)N[C@H](C(=O)N[C@@H](CCN)C(=O)N[C@H]1CCNC(=O)[C@H](C(C)O)NC(=O)[C@H](CCN)NC(=O)[C@H](CCN)NC(=O)[C@H](CC(C)C)NC(=O)[C@@H](CC2CCCCC2)NC(=O)[C@H](CCN)NC1=O)C(C)O (stereo partly drawn) [Example 22] ({Octanoyl(6-Me)}-[Dab][Thr(3ξ)][Dab][Dab][Dab][dCha]L[Dab][Dab][Thr(3ξ)]; lactam 4-C)	µg/mL	4
CC(C)CC(CN)C(=O)N[C@H](C(=O)N[C@@H](CN)C(=O)N[C@H]1CCNC(=O)[C@H]([C@@H](C)O)NC(=O)[C@H](CCN)NC(=O)[C@H](CCN)NC(=O)[C@H](CC(C)C)NC(=O)[C@@H](Cc2ccc(-c3ccccc3)cc2)NC(=O)[C@H](CCN)NC1=O)C(C)O (single isomer, unassigned; isomer 2) [Example 16]	µg/mL	4

Field: next molecule
Recall and state the measured MIC K. pneumoniae 066 for CC(C)CC1CNCC(C(=O)N[C@H](C(=O)N[C@@H](CN)C(=O)N[C@H]2CCNC(=O)[C@H]([C@@H](C)O)NC(=O)[C@H](CCN)NC(=O)[C@H](CCN)NC(=O)[C@H](CC(C)C)NC(=O)[C@@H](Cc3ccc(-c4ccccc4)cc3)NC(=O)[C@H](CCN)NC2=O)C(C)O)C1 (single isomer, unassigned; isomer 2) . 1
